The compounds listed here are annotated with their Activity.
Tested on: Escherichia coli
assay summary: Antibacterial activity against CTX-M-14 ESBL producing Escherichia coli assessed as resistant isolates by disk diffusion method
Assay type: functional

compound	scale unit	Activity
COc1cc(Cc2cnc(N)nc2N)cc(OC)c1OC [TRIMETHOPRIM]	%	100
NC[C@H]1O[C@H](O[C@H]2[C@H](O)[C@@H](O[C@H]3O[C@H](CO)[C@@H](O)[C@H](N)[C@H]3O)[C@H](N)C[C@@H]2N)[C@H](N)C[C@@H]1O [TOBRAMYCIN]	%	100
O=C(N[C@H](CO)[C@H](O)c1ccc([N+](=O)[O-])cc1)C(Cl)Cl [CHLORAMPHENICOL]	%	82
NCC[C@H](O)C(=O)N[C@@H]1C[C@H](N)[C@@H](O[C@H]2O[C@H](CN)[C@@H](O)[C@H](O)[C@H]2O)[C@H](O)[C@H]1O[C@H]1O[C@H](CO)[C@@H](O)[C@H](N)[C@H]1O [AMIKACIN]	%	0
CCn1cc(C(=O)O)c(=O)c2cc(F)c(N3CCNCC3)cc21 [NORFLOXACIN]	%	100
CN(C)[C@@H]1C(O)=C(C(N)=O)C(=O)[C@@]2(O)C(O)=C3C(=O)c4c(O)cccc4[C@@](C)(O)[C@H]3C[C@@H]12 [TETRACYCLINE]	%	82
CCn1cc(C(=O)O)c(=O)c2ccc(C)nc21 [NALIDIXIC ACID]	%	100
O=C(O)c1cn(C2CC2)c2cc(N3CCNCC3)c(F)cc2c1=O [CIPROFLOXACIN]	%	100
